- protocol_text: chemical genetic growth profiling, strain panel (AID 1159580);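 also: tested at 20 µM; growth read once vehicle control cultures reached saturation at 30 °C; lower values mean less growth of the strain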
- stated_conditions: S. cerevisiae deletion strains, growth OD, locus YMR223W, strain ubp8
In all, about 5,500 compounds went through this assay and about 2,000 (36%) were called active. About 18% were inconclusive and are not listed. Rule as the data show it: active = normalized growth mostly below about 0.91 (no sharp cut-off); inconclusive = no clear call, values can overlap the other calls; inactive = mostly above about 0.92. The list shows a part of the results.
Choose one outcome from this list and give only that: y (active), n (inactive)

I would be grateful if you could indicate the recorded call for `COc1ccc2cc1Oc1ccc(cc1)C[C@H]1c3cc(c(OC)cc3CCN1C)Oc1c(OC)c(OC)cc3c1[C@H](C2)N(C)CC3` .
n

I would be grateful if you could indicate the recorded call for `CCC1(c2ccccc2)C(=O)NCNC1=O` .
n

I would be grateful if you could indicate the recorded call for `COc1cc(O)c2c(=O)cc(C)oc2c1CC=C(C)C` .
n

I would be grateful if you could indicate the recorded call for CCC1(c2ccc(N)cc2)CCC(=O)NC1=O (centres undefined) .
n

I would be grateful if you could indicate the recorded call for `NC(=O)N1c2ccccc2CC(=O)c2ccccc21` .
n

I would be grateful if you could indicate the recorded call for `C1CCc2nnnn2CC1` .
n

I would be grateful if you could indicate the recorded call for `NC/C=C/C(=O)O` .
n

I would be grateful if you could indicate the recorded call for `c1ccc(CC2=NCCN2)cc1` .
n

I would be grateful if you could indicate the recorded call for `Cc1cc(C(C)(C)CC(C)(C)C)ccc1OCCOCC[N+](C)(C)Cc1ccccc1` .
y

I would be grateful if you could indicate the recorded call for `CC(C)[N+](C)(CCOC(=O)C1c2ccccc2Oc2ccccc21)C(C)C` .
n

I would be grateful if you could indicate the recorded call for NC[C@@H]1O[C@H](O[C@@H]2[C@@H](CO)OC(O[C@@H]3[C@@H](O)[C@H](N)C[C@H](N)[C@H]3OC3O[C@H](CN)[C@@H](O)[C@H](O)[C@H]3N)[C@@H]2O)[C@H](N)[C@@H](O)[C@@H]1O (some centres undefined) .
n

I would be grateful if you could indicate the recorded call for `Cc1cc(=O)c2c(O)c(C)c(O)cc2o1` .
n

I would be grateful if you could indicate the recorded call for `Cc1c(O)cc(O)c2c(=O)c(-c3ccc(O)cc3)coc12` .
n

I would be grateful if you could indicate the recorded call for CCC1(C)CC(=O)NC1=O (centres undefined) .
n

Values were extracted from PubChem BioAssay AID1159580.
